assayInfo: Metabolic stability in cynomolgus monkey plasma assessed as compound remaining at 1 ug/ml after 4 hrs
Format: ADME, cell-free, Macaca fascicularis
condition: read-out: Stability
resultType: remaining at 4 h, 1 ug/ml (%)
The reply should contain only the number, in %.

Past entries and their recorded results:
{"columns": ["compound", "readoutValue"],
 "data": [
  ["CCCCCOC(=O)[C@H](C)NP(=O)(OC[C@H]1O[C@@H](n2cnc3c(=O)[nH]c(N)nc32)[C@](C)(O)[C@@H]1O)Oc1cccc2ccccc12 (stereo partly drawn)", 94],
  ["CC(C)[C@H](NP(=O)(OC[C@H]1O[C@@H](n2cnc3c(=O)[nH]c(N)nc32)[C@](C)(O)[C@@H]1O)Oc1ccc2ccccc2c1)C(=O)OCc1ccccc1 (stereo partly drawn)", 95]
]}

Here's the next entry for you.
Looking up CCCCOC(=O)[C@H](C)NP(=O)(OC[C@H]1O[C@@H](n2cnc3c(=O)[nH]c(N)nc32)[C@](C)(O)[C@@H]1O)Oc1cccc2ccccc12 (stereo partly drawn) , I see its remaining at 4 h, 1 ug/ml listed as 81
